SYSTEM_TESTED: recombinant SARS-CoV-2 M^pro (Severe acute respiratory syndrome coronavirus 2 (2019-nCoV) (SARS-CoV-2), UniProt P0DTD1)
TEST_DETAILS: Inhibition of SARS-CoV-2 M^pro enzyme activity (fluorescent substrate assay)
Assay type: biochemical
CONDITIONS: inhibition of SARS-CoV-2 M^pro enzyme activity; values in nM; read-out: IC50
Lab note: cut-off is 30 nM. Strictly less in IC50 is criterion met. Exactly 30 nM or more is criterion not met.

>>> class_assignment("O=C(CNC(=O)c1ccccc1F)N[C@H](Cc1ccccc1)C(=O)C(=O)NCc1nccs1")
"criterion not met"

Data request: Hi there! Is IC50 for O=C(NCc1nccs1)C(=O)[C@@H](Cc1ccccc1)NC(=O)C1(n2ccc(C3CCC(F)(F)CC3)n2)CC1 below 30 nM, do you know?
Data returned: criterion met

Data request: Hi there! Is IC50 for O=C(NCc1cscn1)C(=O)[C@@H](Cc1ccccc1)NC(=O)[C@H]1COCCN1C(=O)C1CCC(F)(F)CC1 below 30 nM, do you know?
Data returned: criterion met

Data request: Hi there! Is IC50 for C[C@@H](NC(=O)COc1cccnc1)C(=O)N[C@H](Cc1ccccc1)C(=O)C(=O)NCc1ccccn1 below 30 nM, do you know?
Data returned: criterion not met

Data request: Hi there! Is IC50 for CN(CC(=O)N[C@H](Cc1ccccc1)C(=O)C(=O)NCc1ccccn1)C(=O)C1CCC(F)(F)CC1 below 30 nM, do you know?
Data returned: criterion not met

Data request: Hi there! Is IC50 for C[C@@H](NC(=O)[C@H]1CC(=O)N([C@@H](C)c2ccccc2)C1)C(=O)N[C@H](Cc1ccccc1)C(=O)C(=O)NCc1ccccn1 below 30 nM, do you know?
Data returned: criterion not met

Data request: Hi there! Is IC50 for O=C(NCc1ccccn1)C(=O)[C@@H](Cc1ccccc1)NC(=O)[C@H]1CC2CCCCC2N1C(=O)N1CCC(F)(F)CC1 (stereo partly shown) below 30 nM, do you know?
Data returned: criterion met

Data request: Hi there! Is IC50 for O=C(NCc1ccccn1)C(=O)[C@@H](Cc1ccccc1)NC(=O)[C@H]1Cc2ccccc2CN1C(=O)[C@@H](NC(=O)c1cnccn1)C1CCCCC1 below 30 nM, do you know?
Data returned: criterion met

Data request: Hi there! Is IC50 for CC[C@@H](NC(=O)c1ccc(F)cc1)C(=O)N[C@H](Cc1ccccc1)C(=O)C(=O)NCc1ccccn1 below 30 nM, do you know?
Data returned: criterion met

Data request: Hi there! Is IC50 for O=C(NCc1ccccn1)C(=O)[C@@H](Cc1ccccc1)NC(=O)[C@H]1COCCN1C(=O)[C@H](NC(=O)c1cnccn1)C1CCCCC1 below 30 nM, do you know?
Data returned: criterion met

Data request: Hi there! Is IC50 for C[C@@H](NC(=O)c1cc2ccccc2[nH]1)C(=O)N[C@H](Cc1ccccc1)C(=O)C(=O)NCc1nccs1 below 30 nM, do you know?
Data returned: criterion not met

Data request: Hi there! Is IC50 for CC(C)(NC(=O)NCC1CCC(F)(F)CC1)C(=O)N[C@H](Cc1ccccc1)C(=O)C(=O)NCc1ccccn1 below 30 nM, do you know?
Data returned: criterion met
